Test system: NCI-H322M
protocolDescription: cells
testContext: Homo sapiens, 48 h, read-out: LC50
measuredParameter: CC50 (µM)
Kindly provide the numeric value in µM only, without the unit symbol.

| compound | CC50 (µM) |
| --- | --- |
| CN(C)c1nc(NCCNS(=O)(=O)c2ccc(C(=O)/C=C/c3ccc(F)cc3)cc2)nc(N2CCOCC2)n1 [23f] | 50.9 |

Alright, here's another compound for you.
Task item: Jot down CC50 (NCI-H322M) of Nc1nc(N)c2c(n1)NC(c1ccc(C(F)(F)F)cc1)CC(c1ccc(Nc3nc(NCCO)nc(Nc4ccc(Cl)cc4)n3)cc1)=N2 (stereo not shown) [33g] .
Reply: 5.63

----------
Listed below: CC50 values for each entry.
System: OVCAR-8
protocolDescription: cells
testContext: Homo sapiens, OVCAR-8, 48 h, read-out: LC50
Kindly provide the numeric value in µM only, without the unit symbol.

| compound | measuredParameter | reportedMeasurement |
| --- | --- | --- |
| Nc1nc(N)c2c(n1)NC(c1ccccc1)CC(c1ccc(Nc3nc(NCCO)nc(Nc4ccc(Cl)cc4)n3)cc1)=N2 (stereo not shown) [33a] | CC50 | 6.59 |

Task item: Give the value of CC50 reported for the following: CN(C)c1nc(NCCNS(=O)(=O)c2ccc(C(=O)/C=C/c3ccccc3)cc2)nc(N2CCOCC2)n1 [23a]
Reply: 61.7

Task item: Give the value of CC50 reported for the following: CN(C)c1nc(NCCNS(=O)(=O)c2ccc(C(=O)/C=C/c3ccc(F)cc3)cc2)nc(Nc2ccc(F)cc2)n1 [24f]
Reply: 13.9

Task item: Give the value of CC50 reported for the following: CN(C)c1nc(NCCNS(=O)(=O)c2ccc(C3=Nc4c(N)nc(N)nc4NC(c4ccc(C(F)(F)F)cc4)C3)cc2)nc(Nc2ccc(F)cc2)n1 (stereo not shown) [31g]
Reply: 86

----------
Test system: RXF 393
protocolDescription: cells
testContext: Homo sapiens, RXF 393, 48 h
GI50 strictly under 3000 nM means Fulfilled; at 3000 nM or over means Not fulfilled.

| compound | labelClass |
| --- | --- |
| Nc1nc(N)c2c(n1)NC(c1ccccc1)CC(c1ccc(Nc3nc(NCCO)nc(Nc4ccc(Cl)cc4)n3)cc1)=N2 (stereo not shown) [33a] | Fulfilled |
| CN(C)c1nc(NCCNS(=O)(=O)c2ccc(C(=O)/C=C/c3ccc(F)cc3)cc2)nc(N2CCOCC2)n1 [23f] | Not fulfilled |

Task item: Answer whether the compound COc1cc(/C=C/C(=O)c2ccc(S(=O)(=O)NCCNc3nc(N(C)C)nc(N4CCOCC4)n3)cc2)cc(OC)c1OC [23d] has GI50 strictly less than 3000 nM
Reply: Fulfilled

Task item: Answer whether the compound CN(C)c1nc(NCCNS(=O)(=O)c2ccc(C3=Nc4c(N)nc(N)nc4NC(c4ccc(C(F)(F)F)cc4)C3)cc2)nc(Nc2ccc(F)cc2)n1 (stereo not shown) [31g] has GI50 strictly less than 3000 nM
Reply: Fulfilled

Task item: Answer whether the compound COc1ccc(/C=C/C(=O)c2ccc(S(=O)(=O)NCCNc3nc(Nc4ccc(F)cc4)nc(N(C)C)n3)cc2)cc1 [24c] has GI50 strictly less than 3000 nM
Reply: Fulfilled

Task item: Answer whether the compound COc1cc(C2CC(c3ccc(C(F)(F)F)cc3)=Nc3c(N)nc(N)nc3N2)ccc1Oc1nc(Nc2ccc(F)cc2)nc(N(C)C)n1 (stereo not shown) [29g] has GI50 strictly less than 3000 nM
Reply: Fulfilled

----------
Listed below: GI50 values for each entry.
Test system: KM12
protocolDescription: cells
testContext: Homo sapiens, KM12, 48 h
Quick note: number first, unit second.

Task item: Jot down GI50 (KM12) of CN(C)c1nc(NCCNS(=O)(=O)c2ccc(C3=Nc4c(N)nc(N)nc4NC(c4ccc(F)cc4)C3)cc2)nc(Nc2ccc(F)cc2)n1 (stereo not shown) [31f] .
Reply: 4.69 µM

Task item: Jot down GI50 (KM12) of CN(C)c1nc(NCCNS(=O)(=O)c2ccc(C(=O)/C=C/c3ccc(F)cc3)cc2)nc(Nc2ccc(F)cc2)n1 [24f] .
Reply: 2 µM

Task item: Jot down GI50 (KM12) of Nc1nc(N)c2c(n1)NC(c1ccc(C(F)(F)F)cc1)CC(c1ccc(Nc3nc(NCCO)nc(Nc4ccc(Cl)cc4)n3)cc1)=N2 (stereo not shown) [33g] .
Reply: 1.37 µM

Task item: Jot down GI50 (KM12) of CN(C)c1nc(NCCNS(=O)(=O)c2ccc(C(=O)/C=C/c3ccc(C(F)(F)F)cc3)cc2)nc(Nc2ccc(F)cc2)n1 [24g] .
Reply: 2.38 µM

Task item: Jot down GI50 (KM12) of CN(C)c1nc(NCCNS(=O)(=O)c2ccc(C3=Nc4c(N)nc(N)nc4NC(c4ccc(C(F)(F)F)cc4)C3)cc2)nc(Nc2ccc(F)cc2)n1 (stereo not shown) [31g] .
Reply: 6.14 µM

Task item: Jot down GI50 (KM12) of CN(C)c1nc(NCCNS(=O)(=O)c2ccc(C(=O)/C=C/c3ccc(Cl)cc3)cc2)nc(N2CCOCC2)n1 [23e] .
Reply: 16.9 µM

Task item: Jot down GI50 (KM12) of COc1cc(/C=C/C(=O)c2cc(OC)c(OC)c(OC)c2)ccc1Oc1nc(Nc2ccc(F)cc2)nc(N(C)C)n1 [21d] .
Reply: 3.63 µM

----------
protocolDescription: Hemolytic activity, spectrophotometric
Format: cell-based, human
testContext: human, human red blood cells (huRBC), 5% hematocrit, 200 μg/mL, 37 °C
measuredParameter: hemolysis at 24 h, 200 µg/mL
Quick note: number first, unit second.

The following molecules have reported results that may help.
| molecule | measuredParameter | reportedMeasurement |
| --- | --- | --- |
| COc1ccc(C2=Nc3c(N)nc(N)nc3NC(c3ccc(Oc4nc(Nc5ccc(F)cc5)nc(N(C)C)n4)c(OC)c3)C2)cc1 (stereo not shown) [29c] | hemolysis at 24 h, 200 µg/mL | 2.9% |
| COc1ccc(/C=C/C(=O)c2ccc(S(=O)(=O)NCCNc3nc(Nc4ccc(F)cc4)nc(N(C)C)n3)cc2)cc1 [24c] | hemolysis at 24 h, 200 µg/mL | 0.1% |
| Nc1nc(N)c2c(n1)NC(c1ccccc1)CC(c1ccc(Nc3nc(NCCO)nc(N4CCOCC4)n3)cc1)=N2 (stereo not shown) [32a] | hemolysis at 24 h, 200 µg/mL | 2% |
| COc1cc(C2CC(c3ccc(S(=O)(=O)NCCNc4nc(Nc5ccc(F)cc5)nc(N(C)C)n4)cc3)=Nc3c(N)nc(N)nc3N2)cc(OC)c1OC (stereo not shown) [31d] | hemolysis at 24 h, 200 µg/mL | 0.6% |
| COc1ccc(C2CC(c3ccc(S(=O)(=O)NCCNc4nc(Nc5ccc(F)cc5)nc(N(C)C)n4)cc3)=Nc3c(N)nc(N)nc3N2)cc1 (stereo not shown) [31c] | hemolysis at 24 h, 200 µg/mL | 1.2% |
| Nc1nc(N)c2c(n1)NC(c1ccc(Cl)cc1)CC(c1ccc(Nc3nc(NCCO)nc(Nc4ccc(Cl)cc4)n3)cc1)=N2 (stereo not shown) [33e] | hemolysis at 24 h, 200 µg/mL | 1.2% |

Alright, here's another molecule for you.
Task item: Give the value of hemolysis at 24 h, 200 µg/mL reported for the following: COc1cc(C2CC(c3ccc(F)cc3)=Nc3c(N)nc(N)nc3N2)ccc1Oc1nc(NCCO)nc(N2CCOCC2)n1 (stereo not shown) [28f]
Reply: 2%

----------
// NCI-H460 GI50 records
Quick note: number first, unit second.

The following molecules have reported results that may help.
| molecule | tgt | GI50 |
| --- | --- | --- |
| CN(C)c1nc(NCCNS(=O)(=O)c2ccc(C3=Nc4c(N)nc(N)nc4NC(c4ccc(F)cc4)C3)cc2)nc(Nc2ccc(F)cc2)n1 (centres unmarked) [31f] | NCI-H460 | 4.74 µM |
| CN(C)c1nc(NCCNS(=O)(=O)c2ccc(C(=O)/C=C/c3ccc(Cl)cc3)cc2)nc(N2CCOCC2)n1 [23e] | NCI-H460 | 16.8 µM |

Task item: Jot down GI50 (NCI-H460) of Cc1ccc(C2CC(c3ccc(S(=O)(=O)NCCNc4nc(Nc5ccc(F)cc5)nc(N(C)C)n4)cc3)=Nc3c(N)nc(N)nc3N2)cc1 (centres unmarked) [31b] .
Reply: 4.76 µM

Task item: Jot down GI50 (NCI-H460) of Nc1nc(N)c2c(n1)NC(c1ccccc1)CC(c1ccc(Nc3nc(NCCO)nc(Nc4ccc(Cl)cc4)n3)cc1)=N2 (centres unmarked) [33a] .
Reply: 1.85 µM

Task item: Jot down GI50 (NCI-H460) of Cc1ccc(/C=C/C(=O)c2ccc(S(=O)(=O)NCCNc3nc(Nc4ccc(F)cc4)nc(N(C)C)n3)cc2)cc1 [24b] .
Reply: 4.22 µM

Task item: Jot down GI50 (NCI-H460) of COc1cc(/C=C/C(=O)c2ccc(C)cc2)ccc1Oc1nc(NCCO)nc(N2CCOCC2)n1 [20b] .
Reply: 2.2 µM

Task item: Jot down GI50 (NCI-H460) of CN(C)c1nc(NCCNS(=O)(=O)c2ccc(C3=Nc4c(N)nc(N)nc4NC(c4ccc(C(F)(F)F)cc4)C3)cc2)nc(Nc2ccc(F)cc2)n1 (centres unmarked) [31g] .
Reply: 5.49 µM

Task item: Jot down GI50 (NCI-H460) of CN(C)c1nc(NCCNS(=O)(=O)c2ccc(C(=O)/C=C/c3ccccc3)cc2)nc(N2CCOCC2)n1 [23a] .
Reply: 18.2 µM

Task item: Jot down GI50 (NCI-H460) of CN(C)c1nc(NCCNS(=O)(=O)c2ccc(C(=O)/C=C/c3ccccc3)cc2)nc(Nc2ccc(F)cc2)n1 [24a] .
Reply: 4.34 µM

Task item: Jot down GI50 (NCI-H460) of COc1cc(/C=C/C(=O)c2ccc(S(=O)(=O)NCCNc3nc(N(C)C)nc(N4CCOCC4)n3)cc2)cc(OC)c1OC [23d] .
Reply: 3.17 µM

Task item: Jot down GI50 (NCI-H460) of CN(C)c1nc(NCCNS(=O)(=O)c2ccc(C3=Nc4c(N)nc(N)nc4NC(c4ccccc4)C3)cc2)nc(Nc2ccc(F)cc2)n1 (centres unmarked) [31a] .
Reply: 6.49 µM
